These measurements were taken from patent US4812461A.

Experiment: Extrapyramidal activity: catalepsy inducing activity test
Assay type: in vivo, dd strain male mice
Details: mouse, in vivo; oral; catalepsy checked 1 and 4 hours after administration; strained state over 30 seconds; mice
measurementLabel: ED50 (mg/kg)
Write down the numeric answer in mg/kg and omit the unit.

O=C(c1ccc(F)cc1)C1CCN(CCCCN2C(=O)[C@@H]3[C@H](C2=O)[C@H]2C=C[C@@H]3C2)CC1 ... 25

// switching to the query molecule
Returns the measured ED50 for the input molecule. Input: "O=C(CCCN1CCC(O)(c2ccc(Cl)cc2)CC1)c1ccc(F)cc1"
3

---

System: climbing behavior induced by apomorphine
Assay: Anti-climbing behavior test (suppression of climbing behavior induced by apomorphine in mice)
Format: in vivo, dd strain male mice
Conditions: Mus musculus; oral; after 4 hours; apomorphine 1.0 mg/kg s.c.; mice; read-out: ED50, Oral administration After 4 hours (anti-climbing, neuroleptic activity)
measurementLabel: ED50 (mg/kg)
Answer with a number only, understood to be in mg/kg.

O=C(c1ccc(F)cc1)C1CCN(CCCCN2C(=O)[C@@H]3[C@H]4CC[C@H](C4)[C@@H]3C2=O)CC1 ... 21.8

Item "O=C1[C@@H]2[C@H]3CC[C@H](C3)[C@@H]2C(=O)N1CCCCN1CCC(c2nsc3ccccc23)CC1" has what recorded ED50?
3.4

Need ED50 of "O=C1CC2(CCCC2)CC(=O)N1CCCCN1CCN(c2nsc3ccccc23)CC1" , thanks.
61.5

State the recorded ED50 for this entry: "O=C(c1ccc(F)cc1)C1CCN(CCCCN2C(=O)[C@@H]3[C@H](C2=O)[C@H]2C=C[C@@H]3C2)CC1"
2.2
